target: Aβ42 (Homo sapiens); test: Th-T (thioflavin-T) assay of Aβ42 aggregation; assay type: biochemical; settings: time-course reading M115; Supplementary Fig. 47 source data
experimental-readout: Th-T fluorescence, mean of three wells
Answer with a bare number; do not write a unit.

Past entries and their recorded results:
compound=C=C1CC[C@H]2[C@]3(C)C[C@H](C=C(C)C)O[C@H]3CC[C@]2(C)[C@@H]1Cc1c(O)c(C)c(C)oc1=O reading=3.098
compound=C=C1CC[C@H]2[C@]3(C)C[C@@H](C=C(C)C)O[C@H]3CC[C@]2(C)[C@@H]1Cc1c(OC)oc(CO)c(C)c1=O reading=3.682
compound="C=C1CCC2C(C)(CC(=O)C=C(C)C)C(O)CCC2(C)C1Cc1c(O)c(C)c(C)oc1=O (stereo not shown)" reading=3.464
compound="C=C1CCC2C(C)(CC(=O)C=C(C)C)C(O)CCC2(C)C1Cc1c(OC)oc(C)c(C)c1=O (stereo not shown)" reading=3.596
compound=C=C1CC[C@@H]2[C@](C)(CC[C@H]3O[C@H](C=C(C)C)C[C@@]23C)[C@@H]1Cc1c(OC)oc(CO)c(C(=O)OC)c1=O reading=1.052
compound="C=C1CCC2C(C)(CCC=C(C)C)C(O)CCC2(C)C1Cc1c(O)c(C)c(C)oc1=O (stereo not shown) [Compound 9, higginsianin B]" reading=2.812

[in] Supply reported Th-T fluorescence, mean of three wells belonging to this compound: C=C1CCC2C3(C)CC(C=C(C)C)OC3CCC2(C)C1Cc1c(OC)oc(C)c(C)c1=O (stereo not shown)
[out] 3.833

====

test system: DL1 cells; assay: cytotoxicity in Drosophila DL1 cells; type: cell-based; settings: DL1 cells, 1 µM, replicate 1, relative to DMSO 1%
Catalogue of compounds with associated % viability, viability 1
Give a bare numeral; the unit % is implied.

Past entries and their recorded results:
compound="C=C1CCC2C(C)(CCC=C(C)C)C(O)CCC2(C)C1Cc1c(OC)oc(C)c(C)c1=O (stereo not shown) [Compound 15, viridoxin A hydrolysate]" experimental_readout="% viability, viability 1" display_unit=% reading=211.186
compound="C=C1CCC2C(C)(CCC=C(C)C)C(O)CCC2(C)C1Cc1c(OC)oc(C)c(C)c1=O (stereo not shown) [Compound 11]" experimental_readout="% viability, viability 1" display_unit=% reading=31.1387
compound="C=C1CCC2C(C)(CCC=C(C)C)C(O)CCC2(C)C1Cc1c(O)c(C)c(C)oc1=O (stereo not shown) [Compound 4]" experimental_readout="% viability, viability 1" display_unit=% reading=178.548

# next compound below
[in] Supply reported % viability, viability 1 belonging to this compound: C=C1CCC2C(C)(CCC=C(C)C)C(O)CCC2(C)C1Cc1c(O)c(C)c(C)oc1=O (stereo not shown) [Compound 9, higginsianin B]
[out] 27.1162

====

molecular target: Aβ42 (Homo sapiens); experiment: Th-T (thioflavin-T) assay of Aβ42 aggregation; assay type: biochemical; conditions: measurement M4; source data, Ab alone and No Ab as controls
Th-T assay plate reading, mean of three wells (Supplementary Fig. 47) strictly less than 0.3 = true (1). Otherwise false (0).

Previously resolved entries follow.
compound="C=C1CCC2C(C)(CCC=C(C)C)C(=O)CCC2(C)C1Cc1c(O)c(C)c(C)oc1=O (centres unmarked)" category="true (1)"
compound=C=C1CC[C@H]2[C@]3(C)C[C@@H](C=C(C)C)O[C@H]3CC[C@]2(C)[C@@H]1Cc1c(O)c(C)c(C)oc1=O category="false (0)"
compound=CC(C)=CCC/C(C)=C/CC/C(C)=C/CC/C(C)=C/Cc1c(O)c(C)c(C)oc1=O category="false (0)"
compound=C=C1CC[C@H]2[C@]3(C)C[C@H](C=C(C)C)O[C@H]3CC[C@]2(C)[C@@H]1Cc1c(OC)oc(CO)c(C)c1=O category="true (1)"
compound="C=C1CCC2C(C)(CCC=C(C)C)C(O)CCC2(C)C1Cc1c(O)c(C)c(C)oc1=O (centres unmarked) [Compound 4]" category="false (0)"
compound="C=C1CCC2C(C)(CC(=O)C=C(C)C)C(O)CCC2(C)C1Cc1c(OC)oc(CO)c(C)c1=O (centres unmarked)" category="false (0)"

[in] Lab log: compare recorded Th-T assay plate reading, mean of three wells (Supplementary Fig. 47) with 0.3; is it strictly lower for C=C1CCC2C(C)(CCC=C(C)C)C(O)CCC2(C)C1Cc1c(OC)oc(C)c(C)c1=O (centres unmarked) [Compound 15, viridoxin A hydrolysate] ?
[out] true (1)

[in] Lab log: compare recorded Th-T assay plate reading, mean of three wells (Supplementary Fig. 47) with 0.3; is it strictly lower for "C=C1CC[C@@H]2[C@](C)(CC[C@H]3O[C@H](C=C(C)C)C[C@@]23C)[C@@H]1Cc1c(O)c(C)c(C)oc1=O" ?
[out] false (0)

====

target: Aβ42 (Homo sapiens); assay: Th-T (thioflavin-T) assay of Aβ42 aggregation; assay type: biochemical; conditions: Aβ42 aggregation time course, reading M135
experimental-readout: Th-T fluorescence, mean of three wells
Answer with a bare number; do not write a unit.

compound=C=C1CC[C@H]2[C@]3(C)C[C@H](C=C(C)C)O[C@H]3CC[C@]2(C)[C@@H]1Cc1c(OC)oc(CO)c(C)c1=O target_or_system="Aβ42 (Homo sapiens)" experimental_readout="Th-T fluorescence, mean of three wells" reading=3.756
compound="C=C1CCC2C(C)(CCC=C(C)C)C(O)CCC2(C)C1Cc1c(O)c(C)c(C)oc1=O (stereo not shown) [Compound 9, higginsianin B]" target_or_system="Aβ42 (Homo sapiens)" experimental_readout="Th-T fluorescence, mean of three wells" reading=2.766
compound=C=C1CC[C@H]2[C@]3(C)C[C@@H](C=C(C)C)O[C@H]3CC[C@]2(C)[C@@H]1Cc1c(O)c(C)c(C)oc1=O target_or_system="Aβ42 (Homo sapiens)" experimental_readout="Th-T fluorescence, mean of three wells" reading=2.652
compound="C=C1CCC2C(C)(CC(=O)C=C(C)C)C(O)CCC2(C)C1Cc1c(OC)oc(C)c(C)c1=O (stereo not shown)" target_or_system="Aβ42 (Homo sapiens)" experimental_readout="Th-T fluorescence, mean of three wells" reading=3.538
compound="C=C1CCC2C(C)(CCC=C(C)C)C(O)CCC2(C)C1Cc1c(O)c(C)c(C)oc1=O (stereo not shown) [Compound 4]" target_or_system="Aβ42 (Homo sapiens)" experimental_readout="Th-T fluorescence, mean of three wells" reading=2.723

[in] Supply reported Th-T fluorescence, mean of three wells belonging to this compound: "C=C1CC[C@H]2[C@]3(C)C[C@@H](C=C(C)C)O[C@H]3CC[C@]2(C)[C@@H]1Cc1c(OC)oc(CO)c(C)c1=O"
[out] 3.594

[in] Supply reported Th-T fluorescence, mean of three wells belonging to this compound: "CC(C)=CCC/C(C)=C/CC/C(C)=C/CC/C(C)=C/Cc1c(O)c(C)c(C)oc1=O"
[out] 2.931

====

Catalogue of compounds with associated Th-T fluorescence, mean of three wells
target: Aβ42 (Homo sapiens, UniProt P05067); experiment: Th-T (thioflavin-T) assay of Aβ42 aggregation; format: biochemical; details: time-course reading M97; Supplementary Fig. 47 source data
Sequence (P05067 672-713): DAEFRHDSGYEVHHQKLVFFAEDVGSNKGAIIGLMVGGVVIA
Answer with a bare number; do not write a unit.

Past entries and their recorded results:
compound="C=C1CCC2C(C)(CCC=C(C)C)C(O)CCC2(C)C1Cc1c(OC)oc(CO)c(C(=O)OC)c1=O (stereo not shown) [Compound 13]" reading=1.044
compound="C=C1CC[C@@H]2[C@](C)(CC[C@H]3O[C@H](C=C(C)C)C[C@@]23C)[C@@H]1Cc1c(OC)oc(CO)c(C(=O)OC)c1=O [Compound 21]" reading=1.027
compound="C=C1CCC2C(C)(CCC=C(C)C)C(O)CCC2(C)C1Cc1c(OC)oc(C)c(C)c1=O (stereo not shown) [Compound 15, viridoxin A hydrolysate]" reading=3.281
compound="C=C1CCC2C(C)(CC(=O)C=C(C)C)C(O)CCC2(C)C1Cc1c(O)c(C)c(C)oc1=O (stereo not shown) [Compound 7]" reading=3.5286
compound="C=C1CCC2C(C)(CCC=C(C)C)C(O)CCC2(C)C1Cc1c(OC)oc(CO)c(C)c1=O (stereo not shown) [Compound 12]" reading=2.083

[in] # assay system Aβ42 (Homo sapiens, UniProt P05067): give Th-T fluorescence, mean of three wells of C=C1CC[C@H]2[C@]3(C)C[C@@H](C=C(C)C)O[C@H]3CC[C@]2(C)[C@@H]1Cc1c(O)c(C)c(C)oc1=O [Compound 5, subglutinol A]
[out] 2.693

[in] # assay system Aβ42 (Homo sapiens, UniProt P05067): give Th-T fluorescence, mean of three wells of C=C1CCC2C(C)(CC(=O)C=C(C)C)C(O)CCC2(C)C1Cc1c(OC)oc(C)c(C)c1=O (stereo not shown) [Compound 25]
[out] 3.595

Data provenance is paper PMC7156458.
